Hey, just so you know, these numbers are from ChEMBL document CHEMBL3526112.

experiment: Ratio of extracellular fluid of brain AUC to plasma AUC in Sprague-Dawley rat at 800 mg/kg, iv; assay type: ADME, organism-based; set-up: dose 800 mg/kg, route intravenous; details: read-out: Ratio AUC
Observation type: Kp
Response field accepts a number only; no unit should be typed.

Query: Which Kp value belongs to O=C([O-])CCCO.[Na+] [SODIUM OXYBATE] ?
Reply: 0.07

---

experiment: Drug uptake in rat RBE4 cells at pH 7.4 up to 10 mins by Michaelis-Menten analysis; type: ADME, cell-based; details: RBE4 cells, pH 7.4
Observation type: Km at 10 min (mM)
Numbers only here, please. The scale is mM.

Query: Which Km at 10 min value belongs to O=C([O-])CCCO.[Na+] [SODIUM OXYBATE] ?
Reply: 23.3
